# Test system: HeLa Kyoto;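 also: synchronized HeLa Kyoto cells (double thymidine block for G1/S, nocodazole release for mitosis), protein amounts in NP-40 versus SDS lysates quantified by mass spectrometry, three biological replicates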
# protocol.description: solubility change mitosis vs G1/S (difference of NP-40 vs SDS log2 ratios) (log2 ratio difference); higher = more soluble in mitosis
observed.property: solubility change mitosis (log2)

Ask: Please look up its solubility change mitosis (log2): MFRGLSSWLGLQQPVAGGGQPNGDAPPEQPSETVAESAEEELQQAGDQELLHQAKDFGNYLFNFASAATKKITESVAETAQTIKKSVEEGKIDGIIDKTIIGDFQKEQKKFVEEQHTKKSEAAVPPWVDTNDEETIQQQILALSADKRNFLRDPPAGVQFNFDFDQMYPVALVMLQEDELLSKMRFALVPKLVKEEVFWRNYFYRVSLIKQSAQLTALAAQQQAAGKEEKSNGREQDLPLAEAVRPKTPPVVIKSQLKTQEDEEEISTSPGVSEFVSDAFDACNLNQEDLRKEMEQLVLDKKQEETAVLEEDSADWEKELQQELQEYEVVTESEKRDENWDKEIEKMLQEEN [SYAP1]
Reply: 0.264
